- EXPERIMENT_NOTES: Solubility in solvents (soluble / insoluble)
- CONDITION_DETAILS: toluene, organic solvent or mixture
Structures can show the parent of a compound that is named as a salt.
EXPERIMENTAL_READOUT: solubility

Request: Item under review: CN1[C@@H]2CC[C@H]1CC(OC(=O)C(O)c1ccccc1)C2 (stereo partly shown) [Homatropine-HCl—(ZnCl2)2] . Reported solubility?
Response: < 1000 µM

* * *

- EXPERIMENT_NOTES: Solubility in solvents (soluble / insoluble)
- CONDITION_DETAILS: dimethylsulfoxide, organic solvent or mixture
Counter-ions that a name gives are not always drawn.
EXPERIMENTAL_READOUT: solubility

Request: Item under review: CN1[C@@H]2CC[C@H]1CC(OC(=O)C(O)c1ccccc1)C2 (stereo partly shown) [Homatropine-HCl—(ZnCl2)2] . Reported solubility?
Response: > 1000 µM
